- Tested on: BEN
- Experimental protocol: relative viability (nuclei count vs DMSO), 5 days (fraction); higher = more cells survive
- Condition notes: first compound 0.8 µM
Outcome measure: relative viability
Answer with a bare number; do not write a unit.

The compound listed as O=c1cc(-c2cccc3c2Sc2ccccc2S3)oc(N2CCOCC2)c1 + CS(=O)(=O)CCNCc1ccc(-c2ccc3ncnc(Nc4ccc(OCc5cccc(F)c5)c(Cl)c4)c3c2)o1 [Lapatinib] (partner 2 µM) shows relative viability equal to 0.81

relative viability measured on O=c1cc(-c2cccc3c2Sc2ccccc2S3)oc(N2CCOCC2)c1 + CC(=O)c1c(C)c2cnc(Nc3ccc(N4CCNCC4)cn3)nc2n(C2CCCC2)c1=O [Palbociclib] (partner 0.5 µM) = 0.477

Record COc1nc(C)cnc1NS(=O)(=O)c1cccnc1-c1ccc(-c2nnco2)cc1 [Zibotentan] + N=C(N)NC(=N)NCCc1ccccc1 [Phenformin] (partner 250 µM) , field relative viability: 0.241
